Data origin: the NIST ThermoML archive (doi:10.1016/j.jct.2010.05.011)

# CONDITION LABEL: 303.15 K; 101.33 kPa; Liquid; Capillary tube (Ostwald / Ubbelohde) method
MEASURED PARAMETER: viscosity (mPa·s)
Answers are plain numbers, in mPa·s.

COS(=O)(=O)[O-].Cc1ccc[n+](C)c1 [1,3-dimethylpyridinium methyl sulfate] | 97.1
CCOS(=O)(=O)[O-].CCc1cccc[n+]1CC [1,2-diethylpyridinium ethylsulfate] | 233.2
CCc1cccc[n+]1C.COS(=O)(=O)[O-] [2-ethyl-1-methylpyridinium methyl sulfate] | 3207

With those in mind, consider the next molecule.
Qu. Look up viscosity: COS(=O)(=O)[O-].C[n+]1ccccc1 [1-methylpyridinium methylsulfate]
Ans. 91
